Target: AHR (Homo sapiens, UniProt P35869)
Sequence (P35869 11-848): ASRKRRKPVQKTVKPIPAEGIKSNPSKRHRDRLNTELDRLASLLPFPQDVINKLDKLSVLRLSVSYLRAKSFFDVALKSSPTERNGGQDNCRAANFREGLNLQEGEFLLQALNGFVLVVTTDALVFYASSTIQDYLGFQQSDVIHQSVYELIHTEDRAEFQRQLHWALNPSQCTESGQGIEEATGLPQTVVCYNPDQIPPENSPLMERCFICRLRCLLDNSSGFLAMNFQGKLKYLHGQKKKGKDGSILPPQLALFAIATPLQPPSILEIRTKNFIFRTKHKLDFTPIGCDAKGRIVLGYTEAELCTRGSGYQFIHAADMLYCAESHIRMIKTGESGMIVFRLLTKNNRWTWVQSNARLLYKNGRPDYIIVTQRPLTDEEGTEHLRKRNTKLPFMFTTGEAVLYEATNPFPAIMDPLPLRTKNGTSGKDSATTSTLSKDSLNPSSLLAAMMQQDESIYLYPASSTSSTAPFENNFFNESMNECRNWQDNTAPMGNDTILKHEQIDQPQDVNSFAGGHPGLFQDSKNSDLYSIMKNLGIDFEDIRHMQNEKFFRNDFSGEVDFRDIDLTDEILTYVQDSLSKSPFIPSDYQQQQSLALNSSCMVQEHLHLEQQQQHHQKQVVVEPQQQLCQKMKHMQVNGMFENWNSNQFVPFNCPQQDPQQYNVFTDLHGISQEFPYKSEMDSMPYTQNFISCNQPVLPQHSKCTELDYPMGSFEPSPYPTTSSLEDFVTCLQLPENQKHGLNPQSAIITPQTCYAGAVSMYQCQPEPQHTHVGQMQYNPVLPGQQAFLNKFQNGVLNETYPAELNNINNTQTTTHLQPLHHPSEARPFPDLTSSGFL
Assay: In vitro assay 1: antagonism in human cell line (transactivation assay, U87 cells prestimulated with kynurenic acid, DRE firefly luciferase reporter)
Format: cell-based
Design: host or cells: U87 glioblastoma cells, stably transfected with DRE firefly luciferase and renilla reporter constructs
Settings: 150 uM kynurenic acid, 20 hours, read-out: Assay 1: AHR-luc Hum Antagonism IC50
Description: Transactivation Assay in Human Cell Line (In Vitro Assays 1 and 2) Transactivation assays were carried out in U87 glioblastoma cells (ATCC) endogenously expressing AHR. In addition the cells were stably transfected with an AHR inducible firefly luciferase reporter gene construct that carried AHR-binding sites (DRE) in its promoter and a renilla reporter gene construct with constitutively active promoter. […]
pIC50: −log10 of the molar value.
# if value of pIC50 reaches 8, tag criterion met; if it stays below, tag criterion not met

> print(dat)
                                   compound                      assayed.system         class.name
1  Cn1cc(-n2nc(-c3ccc(Cl)cc3)cc(C(=O)N[C@H](CO)C(F)(F)F)c2=O)cn1 [Example 35]  AHR (Homo sapiens, UniProt P35869)      criterion met
2  CC(C)(O)C(NC(=O)c1cc(-c2ccc(C(F)(F)F)cc2)nn(-c2cccnc2)c1=O)C(F)(F)F (single isomer, unassigned; (+)) [Example 197]  AHR (Homo sapiens, UniProt P35869)      criterion met
3  O=C(N[C@H]1COC[C@H]1O)c1cc(-c2ccc(Cl)cc2)nn(-c2cccnc2)c1=O (single isomer, unassigned) [Example 173]  AHR (Homo sapiens, UniProt P35869)  criterion not met
4  COC[C@H](CO)NC(=O)c1cc(-c2ccc(Cl)cc2)nn(-c2cccnc2)c1=O [Example 74]  AHR (Homo sapiens, UniProt P35869)  criterion not met
5  C[C@H](NC(=O)c1cc(-c2ccc(OC(F)F)cc2)nn(-c2cccnc2)c1=O)C(C)(C)O [Example 333]  AHR (Homo sapiens, UniProt P35869)  criterion not met
6  Cn1cc(-n2nc(-c3ccc(Cl)cc3)cc(C(=O)N[C@@H]3COC[C@@H]3O)c2=O)cn1 (racemic) [Example 43]  AHR (Homo sapiens, UniProt P35869)  criterion not met
7  C[C@@H](NC(=O)c1cc(-c2ccc(Cl)cc2)nn(-c2cn[nH]c2)c1=O)C(C)(C)O [Example 325]  AHR (Homo sapiens, UniProt P35869)  criterion not met

src = patent US12522594B2
